// data source = patent US20180355050A1

Target: T1, recombinant human CD40L (human, UniProt P29965 108-261, limits assumed)
T1 construct: Bought soluble recombinant protein (R&D, HEK, 6420-CL/CF); also called hCD40L; human CD40L (HEK, R&D)
T1 sequence: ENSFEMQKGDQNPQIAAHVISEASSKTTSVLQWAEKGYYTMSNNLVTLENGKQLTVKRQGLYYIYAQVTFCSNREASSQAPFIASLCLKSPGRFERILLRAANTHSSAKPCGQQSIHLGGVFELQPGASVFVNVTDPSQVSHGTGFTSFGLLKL
Test: FACS ligand competition, biotinylated human CD40L on cyno CD40 HEK cells
Measured % block (maximum observed effect), listed per entry.

binder: C0100044B07 (VHH, Monovalent Nanobody; tag of the monovalent form not spelled out; also called C01000044B07) VHH: EVQLVESGGGLVQPGGRLRLSCAASGFTLDYYALAWFRQAPGKEREGVSCISSSEGSTDYADYADSVKGRFTISRDTAKNTVYLQMNNLKPEDTAVYYCATDETTFFSGSCTLSAATFGSWGQGTLVTVSS
% block (maximum observed effect) / %: 79

binder: C0100028B02 (VHH, Monovalent Nanobody produced in P. pastoris (pAX205); Detected with anti-FLAG reagents, but the tag of the monovalent form is not spelled out; also called C01000028B02) VHH: EVQLVESGGGLVQPGGSLRLSCAASGFTLEYYAIGWFRQAPGKEREGVSCISSEGSTSYTDSVKGRFTISRDNAKNTVYLQMNSLKPEDTAVYYCATDPDRGFLGSSCDTQSHQYDYWGQGTLVTVSS
% block (maximum observed effect) / %: 75

binder: C0100029C10 (VHH, Monovalent Nanobody; tag of the monovalent form not spelled out; also called C01000029C10) VHH: EVQLVESGGGLVQPGGSLRLSCAASGFTLDYYALGWFRQAPGKEREGVSCISSTESSDGSTYYADSVKGRFTISRDSAKNTVYLQMNSLKPEDTAVYYCATDQTLFGVCRGIATPDPGFWGQGTLVTVSS
% block (maximum observed effect) / %: 81

binder: C0100046B03 (VHH, Monovalent Nanobody; tag of the monovalent form not spelled out; also called C01000046B03) VHH: EVQLVESGGGLVQAGGSLRLSCAASGRTPLNYHMAWFRQAPGKEREFVAAISSLLGSTDYSDSLKDRFTISRDNAKATLYLRMNNLKPEDTAVYYCAARETTHYSTSDRVNEMRHYDYWGQGTLVTVSS
% block (maximum observed effect) / %: 97
